# STUDY TARGET: T1, human IL-1RAcP on 293T/17-FR cells (human, UniProt Q9NPH3 21-570)
# T1 sequence (looked up): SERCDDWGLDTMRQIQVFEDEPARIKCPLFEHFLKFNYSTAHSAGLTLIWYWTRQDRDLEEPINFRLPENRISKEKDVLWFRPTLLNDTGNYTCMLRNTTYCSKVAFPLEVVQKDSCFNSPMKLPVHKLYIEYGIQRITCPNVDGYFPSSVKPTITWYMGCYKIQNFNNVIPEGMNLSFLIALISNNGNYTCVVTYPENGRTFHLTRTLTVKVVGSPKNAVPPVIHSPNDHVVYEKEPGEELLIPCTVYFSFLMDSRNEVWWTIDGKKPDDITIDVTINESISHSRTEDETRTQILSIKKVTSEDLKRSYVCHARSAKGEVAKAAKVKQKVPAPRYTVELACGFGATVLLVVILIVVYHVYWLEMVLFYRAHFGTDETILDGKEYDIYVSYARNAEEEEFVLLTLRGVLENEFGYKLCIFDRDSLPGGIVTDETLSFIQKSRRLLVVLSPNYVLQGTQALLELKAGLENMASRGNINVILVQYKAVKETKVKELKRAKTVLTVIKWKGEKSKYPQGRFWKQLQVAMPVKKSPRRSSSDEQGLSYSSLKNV
# MEASUREMENT DESCRIPTION: cell-based or functional assay
Listing of entries alongside the reported functional reporter gene assay (% inhibition), 1 µg/mL mAb.
Please state the figure in %; there is no need to write the unit.

binder="P013.S.02.B.C05 (antibody, V domains shown, rabbit monoclonal antibody; also called P013.A.00085.F10) VH: QSLEESGGRLVTPGTPLTLSCTASGFSLSTYYMSWVRQAPGKGLEWIGYMHVGGFPVYASWAKGRFTISKTSTTVDLKITSPTIEDTATYFCARDFGPPNWTLDLWGQGTLVTVSS VL: DVVMTQTPASVEAAVGGTVTIKCQASQSISSYCSWYQQKPGQPPKLLIYRASTLESGVPSRFKGSGSGTEFTLTISDLESADAATYYCQSSYYDLLGNGFGGGTEVVVK" measured=35

Input line: // query functional reporter gene assay (% inhibition), 1 µg/mL mAb value for entry P013.S.02.B.E03 (antibody, V domains shown, rabbit monoclonal antibody; also called P013.A.00091.A10) VH: QSVEESGGRLVTPGTPLTLTCTVSGFSLSDYYMGWVRQAPGKGLEWIGTIDGGGSTYYASWAKGRFTVSKTSTTVDLTITSPTTEDTAIYFCARNYYAGLSDVFFGWWGQGTLVTVSS VL: DVVMTQTPASVEAAVGGTVTIMCQASETIYSGLAWYQQKPGQPPKLLIYYTSSLASGVPSRFKGSGSGTEFTLTISDLESADAATYYCQTYYDSEGRSYGYNSFGGGTEVVVK
Output line: 16

Input line: // query functional reporter gene assay (% inhibition), 1 µg/mL mAb value for entry P013.S.01.B.B05 (antibody, V domains shown, rabbit monoclonal antibody; also called P013.A.00030.D07) VH: QSLEESGGRLVTPGTPLTLTCTASGFSLSSYYMSWVRQAPGKGLEWVGIISGSASTYYATWAKGRFTISKTSTTVDLKIASPTTEDTATYFCARTHYAAVAGYGYASRLDLWGQGTLVTVSS VL: AIEMTQSPPSLSASVGETVRIRCLASEDIYSGISWYQQKPGKPPTLLIYAASNLESGVPPRFSGSGSGTDYTLTIGGVQAEDAATYYCLGGYSYSNTGPTFGAGTKVEIK
Output line: 93

Input line: // query functional reporter gene assay (% inhibition), 1 µg/mL mAb value for entry P013.S.01.B.C06 (antibody, V domains shown, rabbit monoclonal antibody; also called P013.A.00014.D06) VH: QSVEESGGRLVTPGGSLTLTCTVSGFSLSIYAMGWFRQAPGKGLEWIGDIYAGSGSTWYASWAKGRFTISKTSTTVDLKITSPTTEDTATYFCAREIDAGYVGYGFNLWGQGTLVTVSS VL: AQALTQTPSSVSAAVGGTVTINCQSSQSVYSDYLAWYQQKPGQPPKLLIYQASKLATGVPSRFKGSGSGTQFTLTISGVQSDDAATYYCQATYYGSGWYRAFGGGTELVVK
Output line: 92

Input line: // query functional reporter gene assay (% inhibition), 1 µg/mL mAb value for entry P013.S.02.B.G04 (antibody, V domains shown, rabbit monoclonal antibody; also called P013.A.00015.A11) VH: QSLEESGGRLVTPGTPLTLTCTVSGFSLSRCAMIWVRQAPGKGLEWIGFIGRGGSTWYASWVNGRFTISKTSTTVDLKITSPTTEDTATYFCARDGDYSDYYTFDLWGQGTLVTVSS VL: DVVMTQTPASVSERVGGTVTIKCQASQSIGSNLAWYQQKPGQPPKLLIYGASNLESGVPSRFSGSGSGTEFTLSISGVQSADAATYYCQCSGYDTTGVFPFGGGSEVVVK
Output line: 4
